The reported measurements were obtained from paper PMC10397247.

- SYSTEM: T1, 4H1544-bN
- T1 chain: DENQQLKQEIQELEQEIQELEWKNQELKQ
- ASSAY PROCEDURE: two-hybrid library CCNG1;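 further: natural log of median RNA to DNA barcode read ratio; higher means stronger binding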
RECORDED ENDPOINT: interaction score
One number for each entry.

DENQQLEQKIQELEQKNQELKWEIQELKQ [4H1338-bN]	0.114
DENQQLEQKIQELKQEIQELEWENQELKQ [4H1348-bN]	-1.46
DENQQLKQEIQELEQEIQELEWKNQELKQ [4H1544-bN]	-2.02

Q: Which interaction score value is on record for DENQQLEQKNQELEQKIQELKWEIQELEQ [4H1449-bN] ?
Result: -1.72
